I'd be grateful if you could share measured Kd for these entries.
Target: recombinant FoccCSP protein (Frankliniella occidentalis, UniProt A0A0C5AYL1)
Sequence (A0A0C5AYL1 entry or part of it): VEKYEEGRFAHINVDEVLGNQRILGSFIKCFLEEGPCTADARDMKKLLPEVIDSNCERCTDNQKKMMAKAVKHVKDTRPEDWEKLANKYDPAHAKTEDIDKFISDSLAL
Assay: biochemical
Settings: Dissociation constant (KD), calculated from IC50 with Ki = [IC50]/(1+[1-NPN]/K1-NPN); 2 μM 1-NPN and 2 μM FoccCSP
Numbers only, in µM.

- Compound: "CC(=O)OCc1ccccc1 [Benzyl acetate]"
  Reading unit: "µM"
  Kd: 90.5

Dear colleague, could you send me Kd for each of the items below? Thanks.
1. O=Cc1ccccc1
2. CCCCCC
3. CC12CCC(CC1)C(C)(C)O2
4. C=CC(C)(O)CCC=C(C)C (stereo not drawn)
5. CCOC(=O)c1cccnc1 [Ethyl nicotinate]
6. CC(C)=CCC/C(C)=C/CO
7. C=CCc1ccc(O)c(OC)c1
8. COC(=O)c1ccccc1O [Methyl salicylate]

Solution:
[48.4, 86.9, 85.2, 79, 47.9, 14.1, 88.9, 32.5]

Dear colleague, could you send me Kd for each of the items below? Thanks.
1. CC(C)=CCCC(C)CCO (stereo not drawn)
2. OCc1ccccc1
3. CCc1ccccc1

Solution:
1. 69.9
2. 109
3. 58.5
